Tested on: RPMI-8226 leukemia
EXPERIMENTAL PROTOCOL: NCI-60 one-dose screen, 48 h (100 = growth as untreated, 0 = no growth, -100 = all killed)
RECORDED CONDITIONS: 10 µM unless noted
This is part of a sample that, as a whole, favours compounds with a hit. Of some 83,000 tested, about 20% had one in any assay.
Label key: 1.0 means growth under 70%; 0.0 means growth of 70% or more.

1) Cc1sc2nc(CSc3nnc(-c4ccco4)o3)[nH]c(=O)c2c1C = 1.0
2) COc1ccc(C2=CC(c3ccc(Oc4ccnc5cc(Cl)ccc45)c(OC)c3)c3c(nc(OC)[nH]c3=O)N2)cc1 (centres undefined) = 1.0
3) O=C(Nc1ccc(I)cc1)c1cc([N+](=O)[O-])ccc1O = 1.0
4) O=C1NCC(c2cc3ccccc3[nH]c2=O)Nc2ccccc21 (centres undefined) = 0.0
5) Cc1cc(C)c(S(=O)(=O)N2CCN(c3cc4c(cc3F)c(=O)c(C(=O)O)cn4C3CC3)CC2)c(C)c1 = 1.0
6) COC12CC(=O)C(C(C)=O)=C(O)C1(C)c1c(O)c(C)c(O)c(C(C)=O)c1O2 (centres undefined) = 1.0
7) N#CC1=C(N)OC2=C(C(=O)CCC2)C1c1ccco1 (centres undefined) = 0.0
8) Nc1nn2cc(-c3ccc(Cl)s3)nc2c2ccccc12 = 0.0
9) COc1c(NC[C@H]2OC(O)[C@H](O)[C@@H](O)[C@@H]2O)c(=O)c1=O (some centres undefined) = 0.0
10) CS(=O)(=O)N(c1cc(-c2ccc3ncnc(Nc4cccc(Cl)c4)c3c2)cnc1Cl)S(C)(=O)=O = 1.0
11) COc1ccc(-c2nc3sccn3c2-c2ccnc(NCCCNS(=O)(=O)c3ccc(F)cc3)n2)cc1 = 1.0
12) COc1ccc(NC(=O)CSc2nc3ccc(Cl)cc3c(=O)n2-c2ccccc2C(F)(F)F)c(OC)c1OC = 0.0
13) COc1cc(C2CC(c3c(C)[n+]([O-])c4ccccc4[n+]3[O-])=NN2)cc(OC)c1OC (centres undefined) = 0.0
14) O=C(/C=C/c1ccccc1)n1c(-c2ccc(Cl)cc2)nc2ccccc21 = 1.0
15) COc1ccc(/C=c2\sc3n(c2=O)C2C(NN=3)N(C)C(=O)N2C)cc1 (centres undefined) = 1.0
16) COc1ccc(/C=C/C(=O)OCC(=O)NNC(=O)c2ccccc2)cc1OC = 0.0
17) O=C(NCCc1c[nH]c2ccccc12)C1Cc2ccccc2CN1C(=O)c1ccco1 (centres undefined) = 0.0
18) Cn1c(-c2nonc2NC(=O)c2ccc(F)cc2)nc2ccccc21 = 0.0
19) O=C(O)c1cccc([N+](=O)[O-])c1/C=C/c1ccccc1 = 0.0
20) C=CCN=C1NC(=O)/C(=C/c2cc(C(C)(C)C)c(O)c(C(C)(C)C)c2)S1 = 0.0
21) CCCCC[C@@H]1Cc2cc(O)c(C(=O)O)c3c2[C@H](C[C@@]2(CCCO2)O3)O1 = 0.0
22) CC1=C(C#N)C(C)(C)C(C#N)=C(C)N1 = 0.0
23) Clc1nc(-c2cccnc2)nc2sc3c(c12)CCCCCC3 = 0.0
24) CCOC(=O)C1=C(CSC(=S)N(C2CCCCC2)C2CCCCC2)N(C)C(=O)NC1c1ccccc1 (centres undefined) = 1.0
25) CCCC(C(=O)OCC)C(C)OC(=O)OCC (centres undefined) = 0.0
26) O=C1c2ccccc2C(=O)c2c1oc1oc3c(c(=O)c21)c(=O)n(-c1ccccc1)c1ccccc31 = 1.0
27) Cc1cccc2cc(/C=C/C(=O)/C=C/c3ccc(Cl)cc3)c(=O)[nH]c12 = 1.0
28) CCN(CC)S(=O)(=O)c1ccc2[nH]c(=O)cc(C(=O)Nc3ccc(OC)cc3OC)c2c1 = 0.0
29) Cc1oc2nc[nH]c(=O)c2c1C(=O)/C=C/c1ccc(Cl)cc1Cl = 1.0
30) CCC(=O)Oc1cc(/C=C/C(=O)O[C@H]2C[C@H]3CN4CCc5c([nH]c6cc(OC)ccc56)[C@@H]4C[C@@H]3[C@@H](C(=O)OC)[C@@H]2OC)ccc1OC = 1.0
31) COC(=O)c1cc(-c2cccs2)c(C#N)c(N)c1C#N = 0.0
32) O=S(=O)(NCCCNc1cc(-c2cn(-c3ccccc3)nc2-c2cccc(O)c2)ccn1)c1ccc(Br)cc1 = 1.0
33) O=C1c2ccccc2C(=O)c2c(N=Nc3sc(=O)[nH]c3S)cccc21 = 0.0
